Sourced from patent US20040224958A1

Below, each entry is listed alongside its reported melting point.

COMPOUND	ASSAY_VALUE
O=c1ccc2cnc(Nc3cccc(N4CCCCC4)c3)nc2n1C1CCCC1 [Example 202]	90 to 91 °C

Given the entry CCn1c(=O)c(C)cc2cnc(Nc3ccccc3)nc21 [Example 83] , report its measured melting point.
178 to 180 °C

Given the entry O=c1ccc2cnc(Nc3ccc(N4CCCC(O)C4)cc3)nc2n1C1CCCC1 (stereo not drawn) [Example 206] , report its measured melting point.
178 to 179 °C

Given the entry Cn1c(=O)ccc2cnc(NCCc3ccccn3)nc21 [Example 66] , report its measured melting point.
155 to 156 °C

Given the entry O=c1ccc2cnc(Nc3ccc(N4CCCCC4)cc3)nc2n1CC1CCCCC1 [Example 183] , report its measured melting point.
212 to 213 °C

Given the entry CCN(CC)CCOc1ccc(Nc2ncc3ccc(=O)n(-c4ccccc4)c3n2)cc1 [Example 118] , report its measured melting point.
165 to 167 °C

----------
ASSAYED_TARGET: Cdk5/p25 (Homo sapiens, UniProt Q00535)
ASSAY_DETAILS: Cyclin-Dependent Kinase 5 High Throughput Screening (cdk5-HTS) Assay
Type: biochemical
EXPERIMENTAL_PARAMETERS: high throughput screen
pIC50: −log10 of the molar value.
MEASURED_PROPERTY: pIC50

MOLECULE	ASSAYED_TARGET	pIC50
O=c1ccc2cnc(Nc3ccc4[nH]ccc4c3)nc2n1CC1CC1	Cdk5/p25 (Homo sapiens, UniProt Q00535)	7.06
CCn1c(=O)ccc2cnc(Nc3cc(F)cc(F)c3)nc21	Cdk5/p25 (Homo sapiens, UniProt Q00535)	6.33
CCCn1c(=O)ccc2cnc(Nc3ccc(S(N)(=O)=O)cc3)nc21	Cdk5/p25 (Homo sapiens, UniProt Q00535)	7.37
Cc1cc(Nc2ncc3ccc(=O)n(C(C)C)c3n2)cc(C)c1O	Cdk5/p25 (Homo sapiens, UniProt Q00535)	6.82
COc1ccc(Nc2ncc3ccc(=O)n(CC(F)(F)F)c3n2)cc1OC	Cdk5/p25 (Homo sapiens, UniProt Q00535)	6.91
O=c1ccc2cnc(Nc3ccc(O)c([N+](=O)[O-])c3)nc2n1C1CCCC1	Cdk5/p25 (Homo sapiens, UniProt Q00535)	7.26
CCCn1c(=O)ccc2cnc(Nc3cccc(C(F)(F)F)c3)nc21	Cdk5/p25 (Homo sapiens, UniProt Q00535)	6.51
CCCn1c(=O)ccc2cnc(Nc3cc(Cl)cc(Cl)c3)nc21	Cdk5/p25 (Homo sapiens, UniProt Q00535)	6.97
Cc1cc(Nc2ncc3ccc(=O)n(CC4CC4)c3n2)cc(C)c1O	Cdk5/p25 (Homo sapiens, UniProt Q00535)	6.77
CCC(CC)n1c(=O)ccc2cnc(Nc3ccc(C)c(C)c3)nc21	Cdk5/p25 (Homo sapiens, UniProt Q00535)	7.35

A: CC(C)(C)OC(=O)Nc1ccc(Nc2ncc3ccc(=O)n(CC4CC4)c3n2)cc1
B: O=c1ccc2cnc(Nc3ccc4c(c3)CCC4)nc2n1CC1CC1
C: O=c1ccc2cnc(Nc3ccc4[nH]ncc4c3)nc2n1C1CCCC1
D: CCC(CC)n1c(=O)ccc2cnc(Nc3ccc4[nH]c(=O)[nH]c4c3)nc21
Order the records by pIC50, with each subsequent value no larger than the one before. The response must list the labels following the requested ordering.
D, C, B, A

A: CCC(C)n1c(=O)ccc2cnc(Nc3cccc(S(N)(=O)=O)c3)nc21 (stereo not shown)
B: CCC(CC)n1c(=O)ccc2cnc(Nc3ccc(NC(C)=O)c(C)c3)nc21
C: CCCn1c(=O)ccc2cnc(Nc3ccc(OC(F)(F)F)cc3)nc21
D: CCCn1c(=O)ccc2cnc(Nc3ccc4[nH]nnc4c3)nc21
E: CC(C)n1c(=O)ccc2cnc(Nc3cc(C(F)(F)F)ccc3F)nc21
Order the records, beginning with the lowest pIC50 and ending with the highest. The response must list the labels following the requested ordering.
E, C, B, D, A
(E: 6.05, C: 6.72, B: 6.96, D: 7.40, A: 8.02)

P: CCC(CC)n1c(=O)ccc2cnc(Nc3ccc(C(F)(F)F)cc3)nc21
Q: CCCn1c(=O)ccc2cnc(Nc3ccc4[nH]ccc4c3)nc21
R: CCC(C)n1c(=O)ccc2cnc(Nc3ccc4c(c3)CCCC4=O)nc21 (stereo not shown)
S: CCC(CC)n1c(=O)ccc2cnc(Nc3ccc(F)cc3F)nc21
Order the records, beginning with the lowest pIC50 and ending with the highest. The response must list the labels following the requested ordering.
S, P, Q, R

1: Cc1ccc(Nc2ncc3ccc(=O)n(C4CCCC4)c3n2)cc1NS(C)(=O)=O
2: O=c1ccc2cnc(Nc3cc(F)cc(F)c3)nc2n1C1CCCC1
Higher pIC50 between 1 and 2 ? Use the label to indicate which entry you chose.
1
(1: 7.22, 2: 7.00)

I: CCn1c(=O)ccc2cnc(Nc3ccc4[nH]nnc4c3)nc21
II: N#Cc1ccc(Nc2ncc3ccc(=O)n(C4CCCC4)c3n2)cc1
// task: argmin of pIC50 over [ I , II ] Use the label to indicate which entry you chose.
I
(I: 7.09, II: 7.30)

I: CCC(C)n1c(=O)ccc2cnc(Nc3ccccc3)nc21 (stereo not shown)
II: CCCn1c(=O)ccc2cnc(Nc3ccc(C)c(F)c3)nc21
// task: argmin of pIC50 over [ I , II ] Use the label to indicate which entry you chose.
II

----------
ASSAYED_TARGET: cdk2/cyclinE (Homo sapiens)
ASSAY_DETAILS: Cyclin-Dependent Kinase Assay cdk2/cyclinE
EXPERIMENTAL_PARAMETERS: cdk2/E IC50
pIC50: −log10 of the molar value.
MEASURED_PROPERTY: pIC50

Illustrative cases are given below, each with its answer.
MOLECULE	ASSAY_VALUE
CCC(C)n1c(=O)ccc2cnc(Nc3cccc(S(N)(=O)=O)c3)nc21 (stereo not drawn) [Example 469]	7.34
CCCCn1c(=O)ccc2cnc(Nc3cc(Cl)c(O)c(Cl)c3)nc21 [Example 384]	7.59
CCC(CC)n1c(=O)ccc2cnc(Nc3ccc(C#N)cc3)nc21 [Example 484]	6.87

P: CCCCn1c(=O)ccc2cnc(Nc3cc([N+](=O)[O-])ccc3F)nc21 [Example 415]
Q: CCC(C)n1c(=O)ccc2cnc(Nc3ccc4[nH]ncc4c3)nc21 (stereo not drawn) [Example 448]
R: O=c1ccc2cnc(Nc3ccc4[nH]nnc4c3)nc2n1CC1CC1 [Example 564]
S: N#Cc1ccc(Nc2ncc3ccc(=O)n(C4CCCC4)c3n2)cc1 [Example 531]
Order the records, beginning with the lowest pIC50 and ending with the highest. The response must list the labels following the requested ordering.
P, S, R, Q

a: CCCCn1c(=O)ccc2cnc(Nc3cccc(S(N)(=O)=O)c3)nc21 [Example 402]
b: CCC(C)n1c(=O)ccc2cnc(Nc3ccc(C)c(I)c3)nc21 (stereo not drawn) [Example 465]
// task: argmin of pIC50 over [ a , b ] Use the label to indicate which entry you chose.
b

----------
ASSAYED_TARGET: cdk2/cyclinE (Homo sapiens)
ASSAY_DETAILS: Cyclin-Dependent Kinase Assay cdk2/cyclinE
EXPERIMENTAL_PARAMETERS: cdk2/E IC50
MEASURED_PROPERTY: IC50 (nM)

Illustrative cases are given below, each with its answer.
COMPOUND	IC50, nM
CCC(CC)n1c(=O)ccc2cnc(Nc3cc(F)c(NC(C)=O)c(Cl)c3)nc21	3100
CCC(C)n1c(=O)ccc2cnc(Nc3ccc(F)c([N+](=O)[O-])c3)nc21 (stereo not drawn)	820
O=c1ccc2cnc(Nc3cc(Cl)c(O)c(Cl)c3)nc2n1CC(F)(F)F	523

I: CCC(C)n1c(=O)ccc2cnc(Nc3ccc(N(C)C(C)=O)cc3)nc21 (stereo not drawn)
II: CCC(CC)n1c(=O)ccc2cnc(Nc3ccc(Cl)c(C(F)(F)F)c3)nc21
III: CCC(CC)n1c(=O)ccc2cnc(Nc3ccc(O)c(Cl)c3)nc21
Order the records by IC50, with each subsequent value no larger than the one before. The response must list the labels following the requested ordering.
II, I, III
(II: 467 nM, I: 220 nM, III: 31 nM)

P: CC(C)n1c(=O)ccc2cnc(Nc3cc(Cl)c(O)c(Cl)c3)nc21
Q: CCCn1c(=O)ccc2cnc(Nc3cc(Cl)c(O)c(Cl)c3)nc21
R: Cc1ccc(Nc2ncc3ccc(=O)n(C(C)C)c3n2)cc1I
S: CCCCn1c(=O)ccc2cnc(Nc3ccc(OC)c(OC)c3)nc21
Order the records, beginning with the lowest IC50 and ending with the highest. The response must list the labels following the requested ordering.
Q, S, R, P
(Q: 35.3 nM, S: 90.7 nM, R: 160 nM, P: 512 nM)

I: CCC(C)n1c(=O)ccc2cnc(Nc3ccc4c(c3)CCCC4=O)nc21 (stereo not drawn)
II: CCCn1c(=O)ccc2cnc(Nc3ccc(O)c(C)c3)nc21
III: CCCn1c(=O)ccc2cnc(Nc3ccc4c(c3)C(C)C(C)N4)nc21 (stereo not drawn)
Order the records by IC50, with each subsequent value no larger than the one before. The response must list the labels following the requested ordering.
II, III, I

A: CCCn1c(=O)ccc2cnc(Nc3cc(C(F)(F)F)cc(C(F)(F)F)c3)nc21
B: CCn1c(=O)ccc2cnc(Nc3ccc(NC(=O)OC(C)(C)C)cc3)nc21
C: COc1cc(Nc2ncc3ccc(=O)n(C(C)C)c3n2)cc(OC)c1OC
D: O=c1ccc2cnc(Nc3ccc(O)c(CN4CCOCC4)c3)nc2n1C1CCCC1
Order the records, beginning with the lowest IC50 and ending with the highest. The response must list the labels following the requested ordering.
D, C, B, A
(D: 110 nM, C: 590 nM, B: 1060 nM, A: 2580 nM)
